This collection of values is drawn from paper PMC5540273.

# Test system: MST1R
# condition.set: concentration: 1 μM, replicates: in singlicate; n = 1;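 also: KINOMEscan kinase panel screen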
measured.property: %Inh
# do not omit the unit; it follows the number

Query: Looking for the measured %Inh of `CS(=O)(=O)c1cccc(CNc2nc(Nc3ccc4c(c3)CCC(=O)N4)ncc2C(F)(F)F)c1` , can you help?
Result: 1%

Query: Looking for the measured %Inh of `COc1cc(Nc2nccc(N3CCC(NS(=O)(=O)c4ccc(NC(C)=O)cc4)CC3)n2)cc(OC)c1OC` , can you help?
Result: 13%

Query: Looking for the measured %Inh of `Cc1ccc(NC(=O)c2ccc(Cl)c(Cl)c2)cc1-c1ccc(C(=O)Nc2ccncc2)cc1` , can you help?
Result: 31%

Query: Looking for the measured %Inh of `Nc1ncc(-c2ccc3nccc(-c4ccncc4)c3c2)cc1S(=O)(=O)N1CCCCC1` , can you help?
Result: 35%

----------
# Tested on: PIP5K1C
# condition.set: concentration: 1 μM, replicates: in singlicate; n = 1
# key: entry, value: %Inh
Numbers only here, please. The scale is %.

structure.notation	%Inh [%]
Cn1cc(-c2ccc3c(c2)CCN3C(=O)Cc2cc(F)cc(C(F)(F)F)c2)c2c(N)ncnc21	28
COc1cccc(-c2nc(-c3ccccc3)[nH]c2-c2ccncc2)c1	38
CCn1cnc2c(NCc3ccccc3)ncnc21	22
CC(=O)Nc1cn2nc(Oc3cccc(NC(=O)c4cccc(C(F)(F)F)c4)c3)ccc2n1	5
COC(=O)Nc1nc2ccc(Oc3ccc(CC(=O)Nc4cc(C(F)(F)F)ccc4F)cc3)cc2[nH]1	37

Query: Reported %Inh for PIP5K1C, given `CN(C)CCOc1ccc(-c2cc(-c3ccc(Cl)c(O)c3)c(-c3ccncc3)[nH]2)cc1.Cl.Cl` ?
Result: 54

Query: Reported %Inh for PIP5K1C, given `O=C(Nc1n[nH]c2cc(-c3cccs3)ccc12)C1CC1` ?
Result: 96.7

Query: Reported %Inh for PIP5K1C, given `O=C(O)C(F)(F)F.O=c1[nH]ccc2nc(N[C@@H]3CCNC3)nc(Nc3cc(Cl)cc(Cl)c3)c12` ?
Result: 75

----------
# Test system: PRKCI
# condition.set: concentration: 1 μM, replicates: in singlicate; n = 1
measured.property: %Inh

Query: Looking for the measured %Inh of `CC(=O)Nc1cn2nc(Oc3cccc(NC(=O)c4cccc(C(F)(F)F)c4)c3)ccc2n1` , can you help?
Result: 0%

Query: Looking for the measured %Inh of CC(C)NCC(Cc1ccccc1)NC(=O)c1cc(Br)c(-c2ccnc3[nH]ccc23)s1.Cl.Cl (stereo not drawn) [GSK1383281] , can you help?
Result: 19%

Query: Looking for the measured %Inh of Cn1cc(-c2cnc(N)c3c(-c4ccc5c(c4)CCN5C(=O)Cc4ccccc4)csc23)cn1 [GSK2593074] , can you help?
Result: 0%

Query: Looking for the measured %Inh of Cc1cccc(Nc2nc(N[C@H]3CCCC[C@H]3N)ncc2C(N)=O)c1.Cl [GSK986310] , can you help?
Result: 28%

Query: Looking for the measured %Inh of Nc1ncc(-c2cn[nH]c2)c2scc(-c3ccc4c(c3)CCN4C(=O)Cc3ccccc3)c12 [GSK2593067] , can you help?
Result: 32%

Query: Looking for the measured %Inh of CN(C)c1ncnc2nc[nH]c12 [SKF-31736] , can you help?
Result: 0%

Query: Looking for the measured %Inh of Nc1ncnc2scc(-c3ccc(NC(=O)Cc4cc(F)ccc4F)cc3)c12.O=C(O)C(F)(F)F [SB-731254-M] , can you help?
Result: 43%

Query: Looking for the measured %Inh of COc1cccc(CC(=O)N2CCc3cc(-c4cn(C)c5ncnc(N)c45)ccc32)c1 [GSK2608899] , can you help?
Result: 31%

Query: Looking for the measured %Inh of `CC(C)(C)c1ccc(C(=O)Nc2cn3cc(-n4ccnc4)ccc3n2)cc1` , can you help?
Result: 10%

Query: Looking for the measured %Inh of COc1ccc(C)c(Nc2ccnc(Nc3ccc(-c4cnc[nH]4)cc3)n2)c1.Cl [GW784041] , can you help?
Result: 25%

Query: Looking for the measured %Inh of COc1cc(Nc2ccnc3cc(-c4ccncc4)ccc23)cc(OC)c1OC.Cl [GW494610] , can you help?
Result: 0%

Query: Looking for the measured %Inh of COc1cc(Nc2nccc(N3CCC(NC(=O)Nc4ccc5c(c4)OCO5)C3)n2)cc(OC)c1OC (stereo not drawn) [GSK1379766] , can you help?
Result: 11%

Query: Looking for the measured %Inh of Cc1nn2c(=O)cc(N3CCO[C@H](C)C3)nc2n1Cc1cccc(Cl)c1Cl [GSK2373693] , can you help?
Result: 24%

Query: Looking for the measured %Inh of c1ccc(Oc2ccc(Nc3ccnc4cc(-c5ccc(CN6CCCCC6)o5)ccc34)cc2)nc1 [GW567143] , can you help?
Result: 0%
